Origin of values: PubChem BioAssay AID1903

Measurement Target: Large T antigen (Simian virus 40) (UniProt P03070)
Sequence (P03070 whole entry, looked up): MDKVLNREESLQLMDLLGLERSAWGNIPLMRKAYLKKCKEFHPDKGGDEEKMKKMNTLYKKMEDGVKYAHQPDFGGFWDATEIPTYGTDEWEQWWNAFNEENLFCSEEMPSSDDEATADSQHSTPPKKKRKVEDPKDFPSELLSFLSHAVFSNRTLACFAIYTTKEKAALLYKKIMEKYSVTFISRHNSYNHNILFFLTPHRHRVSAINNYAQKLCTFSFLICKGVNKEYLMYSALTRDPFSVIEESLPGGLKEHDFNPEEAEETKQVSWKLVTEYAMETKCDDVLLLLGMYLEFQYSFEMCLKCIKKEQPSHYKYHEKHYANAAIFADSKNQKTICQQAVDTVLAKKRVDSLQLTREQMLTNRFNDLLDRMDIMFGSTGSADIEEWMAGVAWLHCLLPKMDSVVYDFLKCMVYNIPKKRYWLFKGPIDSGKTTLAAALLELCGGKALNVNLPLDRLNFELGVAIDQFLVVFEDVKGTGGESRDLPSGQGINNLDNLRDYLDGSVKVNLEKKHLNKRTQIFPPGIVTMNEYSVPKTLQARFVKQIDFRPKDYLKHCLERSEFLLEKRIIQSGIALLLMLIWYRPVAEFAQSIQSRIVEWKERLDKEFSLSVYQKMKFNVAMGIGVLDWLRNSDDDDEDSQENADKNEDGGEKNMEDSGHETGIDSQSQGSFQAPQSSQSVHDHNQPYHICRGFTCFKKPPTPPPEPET
Assay Summary: SV40 large T antigen inhibitors, biochemical (AID 1903)
Condition Summary: SV40 large T antigen ATPase/helicase inhibition assay; at 20 µM; active compounds read high
Out of some 310,000 compounds screened, about 1,200 (0.39%) were called active. A selection follows. Results with a measured potency or affinity are listed apart.
Consider the following molecules and their measured inhibition readings.
Metric: inhibition (%)

{"columns": ["Molecule", "Readout Value"],
 "data": [
  ["COc1ccc(NC2CCCN(C(=O)c3ccc4nccnc4c3)C2)cc1OC (configuration not stated)", 32.5],
  ["O=[N+]([O-])c1cccc(/C=N/NS(=O)(=O)c2ccccc2)c1", 9.33],
  ["C/C(=N\\NS(=O)(=O)c1ccc([N+](=O)[O-])cc1)c1c[nH]c2ccccc12", 34],
  ["Clc1cccc(NCc2nnc(SCc3ccc(Cl)cc3Cl)o2)c1", 0.46],
  ["O=C(CN1C(=O)C2CCCCC2C1=O)Nc1nc(-c2ccc(F)cc2)cs1 (configuration not stated)", 12.1],
  ["COCCNC(=O)CN(C(=O)CCC(=O)Nc1ccccn1)c1ccc(F)cc1", 2.44],
  ["COCCn1c(-c2ccc(Br)cc2)csc1=Nc1cccnc1", 8.06],
  ["CC(C)c1ccc(NC2CCCN(C(=O)c3ccco3)C2)cc1 (configuration not stated)", 19.6],
  ["COCC(=O)N/N=C\\c1ccccc1OC/C=C/c1ccccc1", 4.69],
  ["COc1ccc(NC(=O)c2sc(SCc3ccccc3)nc2N)cc1", 1.41],
  ["N#C/C(=C/Nc1ccccc1F)S(=O)(=O)c1ccc(Cl)cc1", -5.3],
  ["COc1ccc(NC2CCCN(C(=O)c3ccc4nc(C)c(C)nc4c3)C2)cc1OC (configuration not stated)", 26.4],
  ["Oc1ccc(/C=N/Nc2cc(N3CCCC3)nc(N3CCCC3)n2)cc1O", 42],
  ["CN(C)c1ccc(/C=N/NS(=O)(=O)c2ccc(Br)cc2)cc1", 24.5],
  ["COc1cc(/C=N/NS(=O)(=O)c2ccc(C)c([N+](=O)[O-])c2)cc([N+](=O)[O-])c1O", 24.7],
  ["CN(Cc1c(C(=O)N/N=C/c2ccccc2)nnn1-c1nonc1N)c1ccccc1", -1.98],
  ["COc1ccc(/C=N/NS(=O)(=O)c2ccccc2)cc1OC", 13.2]
]}
